molecular target: RUNX1 (UniProt Q01196); experiment: RUNX1 binding intensity (PBM fluorescence) in presence of ETS1, normalised to RUNX1-only experiment (arbitrary fluorescence units); higher = stronger binding; conditions: RUNX1 concentration 2 nM; ETS1 concentration 25 nM
Sequence (Q01196 whole entry): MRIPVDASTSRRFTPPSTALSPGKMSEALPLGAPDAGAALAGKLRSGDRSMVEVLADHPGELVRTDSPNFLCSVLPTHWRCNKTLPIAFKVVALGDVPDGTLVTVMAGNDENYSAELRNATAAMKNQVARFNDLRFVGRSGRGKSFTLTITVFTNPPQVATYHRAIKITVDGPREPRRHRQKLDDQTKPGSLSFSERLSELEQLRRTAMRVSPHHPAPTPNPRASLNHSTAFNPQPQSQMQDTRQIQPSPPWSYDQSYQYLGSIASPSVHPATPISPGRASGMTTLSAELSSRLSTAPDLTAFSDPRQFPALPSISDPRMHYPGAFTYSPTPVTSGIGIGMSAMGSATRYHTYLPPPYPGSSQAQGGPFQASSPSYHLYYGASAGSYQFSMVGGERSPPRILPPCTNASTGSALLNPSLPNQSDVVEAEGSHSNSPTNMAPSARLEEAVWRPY
Mark 1 for reported RUNX1 binding intensity of 3000 or greater; mark 0 for anything smaller.

Previously resolved entries follow.
| item_sequence | answer_label |
| --- | --- |
| CTCGCGATTCCTCTTCCGCTGCGGTCTCCTTAACAC | 0 |
| GACAATGAGCGCACAGGATGTGGTTTGGCGGCAGGG | 1 |
| GACTATGTGCTTCCGGTCTCCAATACCGCAGGAGGG | 0 |
| GCTCTGGGTCACACAGGATGTGGTTTTTGAAGTTTG | 1 |
| TTCAGTCCTGGTTTCCTGTGGTTCTAGGATCTTTAT | 0 |
| AGTAGAGGAGGAAGTTAAATGTGGTTTTCTGGGTGG | 0 |
| CACCCTCAACTTCCTGACCCATAAACCACAAGCTAT | 1 |
| CGGCGCGGCGGACGTTGCTGCGGTAGGACGTGCCCG | 0 |

Determine whether measured RUNX1 binding intensity meets or exceeds 3000 for TGCGAGGTTGCCAGGAAACCGCGAAGCCGAGGTCCC 0

RUNX1 binding intensity >= 3000 for TTCAACAGGATATTGCTTTGTTACCACAGGCCCTTT ? 0

* * *

Molecular target: ETS1 (UniProt P14921)
Sequence: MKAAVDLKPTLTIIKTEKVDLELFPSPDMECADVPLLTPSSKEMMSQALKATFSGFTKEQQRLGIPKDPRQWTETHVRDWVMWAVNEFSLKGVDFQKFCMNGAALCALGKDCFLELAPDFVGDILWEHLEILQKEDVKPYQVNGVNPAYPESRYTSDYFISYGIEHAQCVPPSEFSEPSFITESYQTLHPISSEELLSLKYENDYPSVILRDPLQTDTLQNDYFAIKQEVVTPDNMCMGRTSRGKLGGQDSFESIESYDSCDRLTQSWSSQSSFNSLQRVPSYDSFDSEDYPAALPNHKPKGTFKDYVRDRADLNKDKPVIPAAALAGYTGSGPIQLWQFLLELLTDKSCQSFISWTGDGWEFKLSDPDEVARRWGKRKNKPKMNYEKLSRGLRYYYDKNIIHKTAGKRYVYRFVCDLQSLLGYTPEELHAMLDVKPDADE
Experiment: ETS1 binding intensity (PBM fluorescence), ETS1 alone (arbitrary fluorescence units); higher = stronger binding
Conditions: ETS1 concentration 1 nM; RUNX1 concentration 0 nM
experimental_endpoint: ETS1 binding intensity

| item_sequence | recorded_measurement |
| --- | --- |
| GCCACACAGGCAGGAAAGCCACAGCCCACGTCTCCG | 471 |
| ACTTACAAAGGAAGTGACAGAACCACAGAAAAGACC | 1230 |
| CGCCGAACTTCCGGCAGTAAATTCCGTGGTTTCCCT | 2800 |
| GGCGGATGGGGAGAAGAGAGTGGCTGTGGTCTCTGG | 371 |
| TCTAACGCTGAAGGAGGATGTGGTTTCCTATTGGAC | 1770 |

Tell me measured ETS1 binding intensity for CTCTGAGCAGGAAGTGACAAAACCACGCAGGGCAGG please. 3150

* * *

target: RUNX1 (UniProt Q01196); experiment: RUNX1 binding intensity (PBM fluorescence), RUNX1 alone (arbitrary fluorescence units); higher = stronger binding; details: RUNX1 concentration 2 nM; ETS1 concentration 0 nM
Answer not fulfilled if RUNX1 binding intensity is under 800, and fulfilled if it is 800 or more.

Solved entries (count: 2):
| item_sequence | answer_label |
| --- | --- |
| GAGGAAGAGTCTTCCTGTAACCACTAGAGGGCGCTG | not fulfilled |
| GCCAAGGCCTTCCGCCGAGTTGGTTTTTGGGTTGTT | fulfilled |

Decide: RUNX1 binding intensity of GTCACCATTTCCGGGCCTCCGCGGTGTCCCCACCCC >= 800? fulfilled

Tell me whether RUNX1 binding intensity is at least 800 here: AAAGCATTTCCTGCCTTGACTTAACCACAAGACAGG fulfilled

Confirm if RUNX1 binding intensity reported for the sequence GGACCGGTGTCTGGCGGATGCGGTCGTGAAGATAGG is 800 or above. not fulfilled

RUNX1 binding intensity >= 800 for AGAACCACTTCCTCTCAGTAAACCACAGAGACTGTA ? fulfilled

Quick check: does CCCTTCGCTTCCGCTCCGCGTTCCCACAATGCAGTG have RUNX1 binding intensity greater than or equal to 800? fulfilled
